FYI, the data here is from patent US11266655B2.

system: urea cycle genes; experiment: RNA-seq of primary human hepatocytes, compounds that modulate multiple urea cycle-related genes; format: cell-based; details: primary human hepatocytes, RNA-seq; urea cycle-related genes significantly increased (Table 10)

Molecule	Up-regulated Genes
Nodal: 13 kDa member of the TGF-B superfamily (protein, UniProt Q96S42 238-347, looked up) Nodal homolog: HHLPDRSQLCRKVKFQVDFNLIGWGSWIIYPKQYNAYRCEGECPNPVGEEFHPTNHAYIQSLLKRYQPHRVPSTCCAPVKTKPLSMLYVDNGRVLLDHHKDMIVEECGCL	CPS1, OTC, ARG1
Anti mullerian hormone: member of the TGF-B gene family which mediates male sexual differentiation (protein, UniProt P03971 452-560, looked up) Muellerian-inhibiting factor: SAGATAADGPCALRELSVDLRAERSVLIPETYQANNCQGVCGWPQSDRNPRYGNHVVLLLKMQVRGAALARPPCCVPTAYAGKLLISLSEERISAHHVPNMVATECGCR	CPS1, OTC, ARG1
